Values from PubChem BioAssay AID1963868

system: KRAS PDC tumor spheroids (HUVEC+MSC), viability; experiment: Anticancer human tumor 254851-301-R-J1-PDC patient-derived colon carcinoma cell line growth inhibition [KRAS2]; conditions: second compound 0.1 µM; first compound 1 µM; active compounds read low
Field: viability, T/C. Provide a value for each of the compounds that follow.

Incoming: Which measured viability, T/C value corresponds to O=C(c1cc(Cc2n[nH]c(=O)c3ccccc23)ccc1F)N1CCN(C(=O)C2CC2)CC1 + C=CC(=O)N1CCN(c2nc(=O)n(-c3c(C)ccnc3C(C)C)c3nc(-c4c(O)cccc4F)c(F)cc23)C(C)C1 ?
Outgoing: 103%

Incoming: Given CC(C)NCC(C(=O)N1CCN(c2ncnc3c2C(C)CC3O)CC1)c1ccc(Cl)cc1 (stereo not given) + CNCc1ccccc1-c1csc(C(C)Nc2nc(C)nc3cc(OC)c(OC)cc23)c1 , state its recorded viability, T/C.
Outgoing: 92%

Incoming: Suppose we examine the compound COc1cc2nccc(Oc3ccc(NC(=O)C4(C(=O)Nc5ccc(F)cc5)CC4)cc3)c2cc1OC + C=CC(=O)N1CCN(c2nc(=O)n(-c3c(C)ccnc3C(C)C)c3nc(-c4c(O)cccc4F)c(F)cc23)C(C)C1 ; what viability, T/C value has been reported?
Outgoing: 110%

Incoming: Which viability, T/C reading was recorded for the compound CC1COCCN1c1cc(-c2ccnn2C)c2ccnc(-c3ccn[nH]3)c2n1 (stereo not given) + CC1OCC2(CCN(c3cnc(Sc4ccnc(N)c4Cl)c(N)n3)CC2)C1N ?
Outgoing: 36.4%

Incoming: Can you look up the measured viability, T/C of COC(=O)c1ccc2c(C(=Nc3ccc(N(C)C(=O)CN4CCN(C)CC4)cc3)c3ccccc3)c(O)[nH]c2c1 + COc1cc2nc(C)nc(NC(C)c3cc(N)cc(C(F)(F)F)c3)c2cc1OC1CCOC1 for me?
Outgoing: 85.3%

Incoming: GET /values?readout=viability, T/C&item= CC1OCC2(CCN(c3cnc(Sc4ccnc(N)c4Cl)c(N)n3)CC2)C1N (stereo not given) + CNCc1ccccc1-c1csc(C(C)Nc2nc(C)nc3cc(OC)c(OC)cc23)c1
Outgoing: 76.4%

Incoming: # query: viability, T/C of entry O=C(c1cc(Cc2n[nH]c(=O)c3ccccc23)ccc1F)N1CCN(C(=O)C2CC2)CC1 + COc1cc2nc(C)nc(NC(C)c3cc(N)cc(C(F)(F)F)c3)c2cc1OC1CCOC1
Outgoing: 91.8%

Incoming: # query: viability, T/C of entry Cn1nccc1Nc1nccc(-c2cc3c(s2)C(C)(C)N(CCN2CCOCC2)C3=O)n1 + C=CC(=O)N1CCN(c2nc(OCC3CCCN3C)nc3c2CCN(c2cccc4cccc(C)c24)C3)CC1CC#N
Outgoing: 94.1%

Incoming: Would you kindly share the measured viability, T/C for O=C(c1cc(Cc2n[nH]c(=O)c3ccccc23)ccc1F)N1CCN(C(=O)C2CC2)CC1 + CC1OCC2(CCN(c3cnc(Sc4ccnc(N)c4Cl)c(N)n3)CC2)C1N ?
Outgoing: 88%

Incoming: Quick one: viability, T/C of CC(=O)OC12COC1CC(O)C1(C)C(=O)C(O)C3=C(C)C(OC(=O)C(O)C(NC(=O)OC(C)(C)C)c4ccccc4)CC(O)(C(OC(=O)c4ccccc4)C21)C3(C)C (stereo not given) + C=CC(=O)N1CCN(c2nc(OCC3CCCN3C)nc3c2CCN(c2cccc4cccc(C)c24)C3)CC1CC#N ?
Outgoing: 27.3%

Incoming: Need viability, T/C, item COC(=O)c1ccc2c(C(=Nc3ccc(N(C)C(=O)CN4CCN(C)CC4)cc3)c3ccccc3)c(O)[nH]c2c1 + CC1OCC2(CCN(c3cnc(Sc4ccnc(N)c4Cl)c(N)n3)CC2)C1N
Outgoing: 95%

Incoming: Using the record for CCNC(=O)CC1N=C(c2ccc(Cl)cc2)c2cc(OC)ccc2-n2c(C)nnc21 (stereo not given) + CNCc1ccccc1-c1csc(C(C)Nc2nc(C)nc3cc(OC)c(OC)cc23)c1 , report its viability, T/C.
Outgoing: 99.1%

Incoming: # get_value(readout='viability, T/C', item= CCN1CCN(Cc2ccc(Nc3ncc(F)c(-c4cc(F)c5nc(C)n(C(C)C)c5c4)n3)nc2)CC1 + C=CC(=O)N1CCN(c2nc(OCC3CCCN3C)nc3c2CCN(c2cccc4cccc(C)c24)C3)CC1CC#N )
Outgoing: 40.6%

Incoming: Request the reported viability, T/C associated with COc1cc2nccc(Oc3ccc(NC(=O)C4(C(=O)Nc5ccc(F)cc5)CC4)cc3)c2cc1OC + C=CC(=O)N1CCN(c2nc(OCC3CCCN3C)nc3c2CCN(c2cccc4cccc(C)c24)C3)CC1CC#N
Outgoing: 94.1%

Incoming: Param item = Cn1nccc1Nc1nccc(-c2cc3c(s2)C(C)(C)N(CCN2CCOCC2)C3=O)n1 + COc1cc2nc(C)nc(NC(C)c3cc(N)cc(C(F)(F)F)c3)c2cc1OC1CCOC1 ; retrieve measured viability, T/C.
Outgoing: 71.5%

Incoming: I would be grateful if you could share the reported viability, T/C for O=C(c1cc(Cc2n[nH]c(=O)c3ccccc23)ccc1F)N1CCN(C(=O)C2CC2)CC1 + CNCc1ccccc1-c1csc(C(C)Nc2nc(C)nc3cc(OC)c(OC)cc23)c1 .
Outgoing: 108%

Incoming: Which viability, T/C value belongs to CC1(C)CCC(CN2CCN(c3ccc(C(=O)NS(=O)(=O)c4ccc(NCC5CCOCC5)c([N+](=O)[O-])c4)c(Oc4cnc5[nH]ccc5c4)c3)CC2)=C(c2ccc(Cl)cc2)C1 + CNCc1ccccc1-c1csc(C(C)Nc2nc(C)nc3cc(OC)c(OC)cc23)c1 ?
Outgoing: 94.8%

Incoming: Entry under review: COC(=O)c1ccc2c(C(=Nc3ccc(N(C)C(=O)CN4CCN(C)CC4)cc3)c3ccccc3)c(O)[nH]c2c1 + C=CC(=O)N1CCN(c2nc(=O)n(-c3c(C)ccnc3C(C)C)c3nc(-c4c(O)cccc4F)c(F)cc23)C(C)C1 . Reported viability, T/C?
Outgoing: 91.8%

Incoming: Any idea what its viability, T/C is? The compound is COc1cc(Nc2ncc3c(n2)-c2ccc(Cl)cc2C(c2c(F)cccc2OC)=NC3)ccc1C(=O)O + COc1cc2nc(C)nc(NC(C)c3cc(N)cc(C(F)(F)F)c3)c2cc1OC1CCOC1
Outgoing: 25.1%

Incoming: Which viability, T/C value is on record for COc1cc2nccc(Oc3ccc(NC(=O)C4(C(=O)Nc5ccc(F)cc5)CC4)cc3)c2cc1OC + CNCc1ccccc1-c1csc(C(C)Nc2nc(C)nc3cc(OC)c(OC)cc23)c1 ?
Outgoing: 103%

----------
tested on: KRAS PDC tumor spheroids (HUVEC+MSC), viability; test: Anticancer human tumor 254851-301-R-J1-PDC cell line growth inhibition [KRAS2]; settings: second compound 0.1 µM; first compound 0.000316 µM; active compounds read low;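 note: spheroids exposed to compounds for seven days before readout; 100% = DMSO vehicle control luminescence of the spheroids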
metric.name: viability, T/C (%)
Supply the numeric figure in %, leaving out any unit text.

Incoming: Reported viability, T/C for CC(=O)Nc1cccc(-n2c(=O)n(C3CC3)c(=O)c3c(Nc4ccc(I)cc4F)n(C)c(=O)c(C)c32)c1 + CNCc1ccccc1-c1csc(C(C)Nc2nc(C)nc3cc(OC)c(OC)cc23)c1 : what is it?
Outgoing: 101

Incoming: So what does the record say about viability, T/C for CC(=O)Nc1cccc(-n2c(=O)n(C3CC3)c(=O)c3c(Nc4ccc(I)cc4F)n(C)c(=O)c(C)c32)c1 + C=CC(=O)N1CCN(c2nc(=O)n(-c3c(C)ccnc3C(C)C)c3nc(-c4c(O)cccc4F)c(F)cc23)C(C)C1 ?
Outgoing: 105

Incoming: May I ask what viability, T/C has been recorded for CC(C)n1nc(-c2ccc3oc(N)nc3c2)c2c(N)ncnc21 + C=CC(=O)N1CCN(c2nc(OCC3CCCN3C)nc3c2CCN(c2cccc4cccc(C)c24)C3)CC1CC#N ?
Outgoing: 113

Incoming: Tell me the measured viability, T/C of CC(=O)Nc1cccc(-n2c(=O)n(C3CC3)c(=O)c3c(Nc4ccc(I)cc4F)n(C)c(=O)c(C)c32)c1 + CC1OCC2(CCN(c3cnc(Sc4ccnc(N)c4Cl)c(N)n3)CC2)C1N , please.
Outgoing: 100

----------
system: KRAS PDC tumor spheroids (HUVEC+MSC), viability; experiment: Anticancer human tumor 254851-301-R-J1-PDC cell line growth inhibition [KRAS2]; conditions: second compound 10 µM; first compound 1 µM; active compounds read low;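 note: spheroids exposed to compounds for seven days before readout; 100% = DMSO vehicle control luminescence of the spheroids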
Note to self: use true (1) only for viability, T/C readings below 0.1%; a reading exactly at 0.1% still gets false (0).

Incoming: Below 0.1% on viability, T/C? Entry COC(=O)c1ccc2c(C(=Nc3ccc(N(C)C(=O)CN4CCN(C)CC4)cc3)c3ccccc3)c(O)[nH]c2c1 + COc1cc2nc(C)nc(NC(C)c3cc(N)cc(C(F)(F)F)c3)c2cc1OC1CCOC1
Outgoing: false (0)

Incoming: Say whether its viability, T/C is strictly beneath 0.1%. Entry: CC1COCCN1c1cc(-c2ccnn2C)c2ccnc(-c3ccn[nH]3)c2n1 (stereo not given) + CNCc1ccccc1-c1csc(C(C)Nc2nc(C)nc3cc(OC)c(OC)cc23)c1
Outgoing: true (1)

Incoming: # check: viability, T/C < 0.1% for CC(=O)OC12COC1CC(O)C1(C)C(=O)C(O)C3=C(C)C(OC(=O)C(O)C(NC(=O)OC(C)(C)C)c4ccccc4)CC(O)(C(OC(=O)c4ccccc4)C21)C3(C)C (stereo not given) + C=CC(=O)N1CCN(c2nc(=O)n(-c3c(C)ccnc3C(C)C)c3nc(-c4c(O)cccc4F)c(F)cc23)C(C)C1
Outgoing: false (0)

Incoming: In plain terms, does CC1(C)CCC(CN2CCN(c3ccc(C(=O)NS(=O)(=O)c4ccc(NCC5CCOCC5)c([N+](=O)[O-])c4)c(Oc4cnc5[nH]ccc5c4)c3)CC2)=C(c2ccc(Cl)cc2)C1 + C=CC(=O)N1CCN(c2nc(=O)n(-c3c(C)ccnc3C(C)C)c3nc(-c4c(O)cccc4F)c(F)cc23)C(C)C1 come in under 0.1% for viability, T/C?
Outgoing: false (0)

Incoming: Field: below-cutoff. Rule: recorded viability, T/C strictly less than 0.1%. Subject: CC1(C)CCC(CN2CCN(c3ccc(C(=O)NS(=O)(=O)c4ccc(NCC5CCOCC5)c([N+](=O)[O-])c4)c(Oc4cnc5[nH]ccc5c4)c3)CC2)=C(c2ccc(Cl)cc2)C1 + CNCc1ccccc1-c1csc(C(C)Nc2nc(C)nc3cc(OC)c(OC)cc23)c1
Outgoing: false (0)
